- tested_system: Short transient receptor potential channel 4 (Mus musculus)
- experimental_protocol: calcium flux activators in TRPC4/5HT1a cells, counter-screen for TRPC4 activator project, cell-based, second counter screen, HEK293 TRPC4/5HT1a, Fluo-4 (AID 434977);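 on activation: plate controls were assay buffer for no effect and maximal serotonin response for full effect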
- experimental_context: Fluo-4 calcium flux, at 10 µM; stronger effect = higher value
Activity calls are given as the source filed them.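 How the source made its calls: active means calcium signal rise above buffer-control mean plus 5 SD in both duplicates, and also a hit in the primary screen; inactive means the rest.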
observable: activation

>  <molecule>
CCCCCSc1nnc2c(n1)OC(c1cccn1C)N(C(C)=O)c1ccccc1-2 (configuration not stated)

>  <tested_system>
Short transient receptor potential channel 4 (Mus musculus)

>  <activation>
18% (active)

$$$$
>  <molecule>
O=C(NCCCN1CCN(CCCNC(=O)c2ccc3c(c2)OCO3)CC1)c1ccc2c(c1)OCO2

>  <tested_system>
Short transient receptor potential channel 4 (Mus musculus)

>  <activation>
37.2% (active)

$$$$
>  <molecule>
Cc1c(C(=O)N(Cc2cccs2)C2CCS(=O)(=O)C2)oc2ccccc12 (configuration not stated)

>  <tested_system>
Short transient receptor potential channel 4 (Mus musculus)

>  <activation>
inactive

$$$$
>  <molecule>
COc1ccc(-c2cc(C#N)nc(N3CCNCC3)n2)cc1

>  <tested_system>
Short transient receptor potential channel 4 (Mus musculus)

>  <activation>
inactive

$$$$
>  <molecule>
NCCSc1c(-c2ccc(Cl)cc2)[nH]c2ccccc12

>  <tested_system>
Short transient receptor potential channel 4 (Mus musculus)

>  <activation>
8.63% (active)

$$$$
>  <molecule>
CN(C)C(CNC(C(=O)Nc1ccc(F)cc1)c1ccccc1)c1ccccc1 (configuration not stated)

>  <tested_system>
Short transient receptor potential channel 4 (Mus musculus)

>  <activation>
inactive

$$$$
>  <molecule>
O=c1c2cc(Br)ccc2nc(-c2ccc(Cl)cc2)n1O

>  <tested_system>
Short transient receptor potential channel 4 (Mus musculus)

>  <activation>
102% (active)

$$$$
>  <molecule>
CC1Cc2ccccc2N1C(=O)CSc1nc2c(c(=O)n(C)c(=O)n2C)n1Cc1ccccc1 (configuration not stated)

>  <tested_system>
Short transient receptor potential channel 4 (Mus musculus)

>  <activation>
85.8% (active)

$$$$

Field: activation. Fill in for each record below.
1. CC(NCCC1(Cc2ccccc2Cl)CCOC(C)(C)C1)c1cccs1 (configuration not stated)
2. COc1cccc(CNCc2ccccn2)c1OC
3. CC(=O)N1CCc2cc(Br)cc(S(=O)(=O)NCCCN(C)Cc3ccccc3)c21
4. CN(CCOc1ccc(Cl)cc1)CC(O)c1ccccc1 (configuration not stated)

Reply:
1: inactive; 2: inactive; 3: 27.8% (active); 4: 13.9% (active)

====

- tested_system: Potassium voltage-gated channel subfamily KQT member 1 (Homo sapiens)
- experimental_protocol: KCNQ1 potassium channel potentiators, confirmation, FluxOR thallium flux, CHO cells, duplicates (AID 493007);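 on outcome: cells depolarized by a potassium plus thallium sulfate stimulus after compound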
- experimental_context: KCNQ1 cell line, FluxOR thallium flux fluorescence, at 10 µM, % of reference activator effect, buffer zero
Active and inactive are the calls of the source.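 How the source made its calls: active means potentiation averaged over duplicate wells exceeding buffer-only control mean by more than 3 SD; inactive means the rest.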
Please answer using one outcome listed in Y = active, N = inactive

Please review the entries below; each comes with its answer.
>  <compound>
CCC(C)c1ccccc1OCCCNC1CCCC1 (configuration not stated)

>  <tested_system>
Potassium voltage-gated channel subfamily KQT member 1 (Homo sapiens)

>  <assigned_category>
N

$$$$
>  <compound>
Cc1[nH][nH]c(=O)c1C(c1ccc(-c2ccc(F)cc2)o1)c1c(C)[nH][nH]c1=O

>  <tested_system>
Potassium voltage-gated channel subfamily KQT member 1 (Homo sapiens)

>  <assigned_category>
N

$$$$
>  <compound>
Cc1cc(S(=O)(=O)N2CCOCC2)ccc1OCC(=O)NCc1ccccn1

>  <tested_system>
Potassium voltage-gated channel subfamily KQT member 1 (Homo sapiens)

>  <assigned_category>
N

$$$$

Query: // return assay outcome for Cc1ccc(C(=O)N2CCNC(=O)C2CC(=O)Nc2ccc(F)cc2)cc1C (configuration not stated)
Reply: Y

Query: // return assay outcome for "O=C(CSc1nc(-c2ccccc2)cs1)N1CCc2ccccc21"
Reply: N

Query: // return assay outcome for "Cc1cc(/C=N/NC(=O)CC#N)c(C)n1-c1ccc([N+](=O)[O-])cc1"
Reply: N

Query: // return assay outcome for "C/C(=N\NC(=S)NCCc1ccccc1)c1cccs1"
Reply: N

Query: // return assay outcome for "CNCC/C=C1/c2ccccc2CSc2ccccc21"
Reply: N
